Listed compounds paired with reported melting point

input: Which value of melting point has been reported for Cc1cccc(N2C(=O)C(=CN(C)C)c3ccccc32)c1 in the records?
output: 105 to 108 °C

input: Quick check: melting point of CN(C)c1ccc(C(=O)C(F)(F)c2ccccc2)cc1 ?
output: 115 to 116 °C

input: Quick one: melting point of COC(=O)CCn1c(=O)n2n(c1=O)C(C(=O)OC)C=CC2 (configuration not stated) ?
output: 91 to 92 °C

input: Given COc1cc(COc2cc(N)c(Cl)cc2C(=O)CCCCN2CCC(C)CC2)cc(OC)c1 , state its recorded melting point.
output: 136 to 137 °C

input: Recorded melting point for COCCNC(=O)C(C)Oc1ccc(Oc2ccc(C(F)(F)F)cc2)cc1 (configuration not stated) , please?
output: 73 to 75 °C

input: Reported melting point for CCc1nc(C)cn1C(=O)c1c(Cl)cccc1Cl : what is it?
output: 112 to 114 °C

input: Entry O=C1NC(=O)C(N(Cc2ccc(Br)cc2)c2ccc(CCNCC(O)COc3ccccc3)cc2)S1 (configuration not stated) : reported melting point = ?
output: 52 to 54 °C

input: Which melting point value belongs to O=C(O)Cc1c([N+](=O)[O-])cc(O)c(O)c1[N+](=O)[O-] ?
output: 178 to 184 °C

input: Give its melting point value. Item: CC#CCOc1ccc(S(=O)(=O)N(C)C(C(=O)O)c2ccc(Cl)cc2)cc1 (configuration not stated)
output: 170 to 172 °C

input: I'd like to know its melting point. The compound in question is CC(C)(C)c1ccc(N(CCCOc2ccc(C(=O)O)cc2)C(=O)c2ccc3c(c2)OCO3)cc1
output: 199 to 203 °C

input: Would you mind telling me what melting point value was observed for CC(=O)NC(=N)N(C)C1CCN(c2nc3ccccc3n2Cc2ccc(F)cc2)CC1 ?
output: 192 °C

====

measurement-type: melting point

Guide cases for melting point, answers given:
compound="CCc1ccc(C2=NC(C)(C(C)C)C(=O)N2CC(=O)O)nc1 (stereo not given)" measurement_type="melting point" assay_result="134 to 136 °C"
compound=CCc1cccc2nc3c(=O)[nH][nH]c(=O)c3c(O)c12 measurement_type="melting point" assay_result="> 400 °C"
compound=COCc1cc(Cl)cc(C(=O)c2nc(OC)cc(OC)n2)c1[N+](=O)[O-] measurement_type="melting point" assay_result="130 to 131 °C"

input: So what does the record say about melting point for CCOC(=O)c1cc(-n2c(=O)c3c(n(C)c2=O)CCC3)ccc1[N+](=O)[O-] ?
output: 188 to 190 °C

input: Report melting point for CC(C)(C)OC(=O)Nc1ccc(-c2cccc(F)c2F)cc1NC(=O)CC(=O)c1cccc(C#N)c1 please.
output: 118 °C

input: Entry under review: N#Cc1ccc2cc(OCCC(c3ccccc3)(c3ccccc3)c3ccccc3)ccc2c1 . Reported melting point?
output: 207 to 208 °C

input: Please report the recorded melting point for CC(C)Sc1c(-c2ccc(S(C)(=O)=O)cc2)cnn(CC(F)(F)F)c1=O .
output: 165 to 167 °C

====

Listing: melting point of selected compounds

compound=Nc1c(C(=O)O)ccc(F)c1F assay_result="207 to 208 °C"
compound=O=C(Nc1c(F)cccc1F)c1c(O)ccn2c1nc1ccccc12 assay_result="232 to 235 °C"
compound=COc1ccc(NN=C(Sc2ccccc2C)C(C)=O)cc1 assay_result="112 to 114 °C"
compound=COC(=O)C(O)=CC(=O)c1cn(Cc2ccccc2)cc(Cc2ccccc2)c1=O assay_result="148 to 150 °C"

input: What measured melting point goes with CCOC(=O)c1cnc2c(c1O)CC(C)CC2 (stereo unspecified) ?
output: 228 to 231 °C

input: Value lookup for melting point; key = O=C(Nc1ccccc1)O[C@@H]1CN2CCC1CC2
output: 129 to 130 °C
